Reference source for all entries: PubChem BioAssay AID1986

Measured inhibition by item
# protocol.description: inhibitors of HIV fusion peptide binding, primary screen, biochemical, uHTS, fluorescence dequenching (AID 1986)
# stated.conditions: cell-free peptide binding, 30 min, at 20 µM, hits give high values
Screen size: about 290,000 compounds; about 890 (0.31%) were called active. For the sample, actives were picked, then their nearest neighbours and some compounds at random.

| compound | measurement.unit | inhibition |
| --- | --- | --- |
| O=C(Nc1nnc(C2CC2)s1)C1CC(=O)N(c2ccc3c(c2)OCCO3)C1 (stereo unspecified) | % | 16.4 |
| CC1=CC(=C(C#N)c2nc3ccccc3s2)C=C(C)N1c1ccc(F)cc1F | % | 22.6 |
| CC(=O)NCCn1c(SCC(=O)NCCC(C)C)nc2ccccc2c1=O | % | -1.8 |
| COc1ccccc1N1C(C)=CC(=C(C#N)c2nc3ccccc3s2)C=C1C | % | 26.5 |
| Cc1c(Cl)c(C(=O)NC2C3CC4CC(C3)CC2C4)nn1C (stereo unspecified) | % | -1.2 |
| O=C(Nc1nnc(-c2ccco2)s1)C1CC1 | % | 0.3 |
